- Test system: human pancreatic carcinoma CRL 1420 cell line
- assay: Colony formation assay, human pancreatic carcinoma CRL 1420
- Format: cell-based
- condition parameters: Homo sapiens, 24 h, Table VII; 24 h treatment
Reported values of IC50 for individual entries

Solved cases below.
record smiles: CCN1C(=CC=c2sc(=Cc3sc4c5ccccc5ccc4[n+]3C)n(CC)c2=O)Sc2ccc3ccccc3c21
IC50: 0.075 µg/mL
//
record smiles: CC[n+]1c(C=c2sc(=CC=C3Sc4ccc5ccccc5c4N3C)c(=O)n2C)sc2c3ccccc3ccc21
IC50: 0.064 µg/mL
//
record smiles: CCN1C=CC=CC1=CC=c1sc(=Cc2sc3ccc4ccccc4c3[n+]2CC)n(CC)c1=O
IC50: 0.04 µg/mL
//
record smiles: CCN1C(=CC=c2sc(=Cc3sc4c5ccccc5ccc4[n+]3CC)n(C)c2=O)Sc2ccc3ccccc3c21
IC50: 0.07 µg/mL
//
record smiles: CCN1CCSC1=CC=c1sc(=Cc2sc3ccc(Cl)cc3[n+]2CC)n(CC)c1=O
IC50: 0.13 µg/mL

The reported IC50 of the compound CCN1CCSC1=CC=c1sc(=Cc2sc3ccc(OC)cc3[n+]2CC)n(CC)c1=O was 0.05 µg/mL

The recorded IC50 for entry CCN1C(=CC=c2sc(=Cc3sc4c5ccccc5ccc4[n+]3CC)n(CC)c2=O)Sc2ccc3ccccc3c21 equals 0.07 µg/mL

CCN1C(=CC=c2sc(=Cc3sc4c5ccccc5ccc4[n+]3C)n(C)c2=O)Sc2ccc3ccccc3c21 yielded IC50 of 0.064 µg/mL

====

- Tested on: human pancreatic carcinoma CRL 1420 cell line
- assay: Colony formation assay, human pancreatic carcinoma CRL 1420
- Assay type: cell-based
- condition parameters: Table VII; 24 h treatment
Below: a set of entries, each annotated with reported CRL-1420 (IC50).

For this compound ( CCn1c(=Cc2sc3c4ccccc4ccc3[n+]2CC)sc(=CC=C2Sc3ccc4ccccc4c3N2C)c1=O [Compound 56] ), measured CRL-1420 (IC50) is < 0.046 µg/mL

Given item CCN1C(=CC=c2sc(=Cc3sc4c5ccccc5ccc4[n+]3C)n(CC)c2=O)Sc2ccc3ccccc3c21 , the value recorded as its CRL-1420 (IC50) is 0.06 µg/mL

Entry under test: CCn1c(=Cc2sc3c4ccccc4ccc3[n+]2CC)sc(=CC=C2Sc3ccc4ccccc4c3N2C)c1=O [Compound 32] . Its CRL-1420 (IC50) was < 0.1 µg/mL

CCN1C(=CC=c2sc(=Cc3sc4ccccc4[n+]3CC)n(CC)c2=O)Sc2ccc3ccccc3c21 [Compound 178] yielded CRL-1420 (IC50) of 0.013 µg/mL

Please fill in: CRL-1420 (IC50) reported for CCN1C(=CC=c2sc(=Cc3sc4c5ccccc5ccc4[n+]3CC)n(CC)c2=O)Sc2ccc3ccccc3c21 = 0.05 µg/mL

For reference, reported CRL-1420 (IC50) for CCN1C(=CC=c2sc(=Cc3sc4ccccc4[n+]3CC)n(CC)c2=O)Sc2ccc3ccccc3c21 [Compound 37] stands at 0.03 µg/mL

====

- Tested on: normal monkey kidney epithelial cell line CV-1
- assay: Colony formation assay, normal monkey kidney epithelial cells CV-1
- condition parameters: Primates, Epithelial cell, read-out: CV-1 (IC50), Table III; 24 h treatment, colony count after 7 to 10 days
endpoint label: IC50 (µg/mL)
Respond with the bare value in µg/mL.

Some solved entries appear below for comparison.
molecule: CC[n+]1c(C=c2sc(=CC=C3Sc4ccc5ccccc5c4N3C)c(=O)n2C)sc2c3ccccc3ccc21
measured number: 20
--
molecule: CCN1CCSC1=CC=c1sc(=Cc2oc3ccc4ccccc4c3[n+]2CC)n(CC)c1=O
measured number: 5

Tested system normal monkey kidney epithelial cell line CV-1; IC50 recorded for C=CCn1c(=Cc2cc[n+](CC)c3ccccc23)sc(=CC=C2C=Cc3ccccc3N2CC)c1=O was 5

The measured IC50 that C=CCn1c(=Cc2sc3c4ccccc4ccc3[n+]2CC)sc(=CC=C2C=CN(CC)c3ccccc32)c1=O showed for normal monkey kidney epithelial cell line CV-1 is 2.5

So the reported IC50 for CCn1c(=Cc2sc3c4ccccc4ccc3[n+]2CC)sc(=CC=C2Sc3ccc4ccccc4c3N2C)c1=O , on normal monkey kidney epithelial cell line CV-1, turned out to be 20

// IC50 (normal monkey kidney epithelial cell line CV-1) for CN1C(=CC=c2sc(=Cc3sc4c5ccccc5ccc4[n+]3C)n(C)c2=O)Sc2ccc3ccccc3c21 = 20

Value sought: IC50, system normal monkey kidney epithelial cell line CV-1, item CCN1/C(=C/C=C/c2sc3ccccc3[n+]2CC)Sc2ccccc21 [B, reference compound] . Result: 0.6

CCn1c(=Cc2cccc[n+]2CC)sc(=CC=C2Sc3ccc4ccccc4c3N2C)c1=O tested on normal monkey kidney epithelial cell line CV-1 gave IC50: 20

====

- System: normal monkey kidney epithelial cell line CV-1
- assay: Colony formation assay, normal monkey kidney epithelial cells CV-1
- condition parameters: Primates, Epithelial cell, read-out: CV-1 (IC50), Table III; 24 h treatment, colony count after 7 to 10 days
The reader will find reported IC50 values listed item by item below.

The following compounds have reported results that may help.
record smiles: CCN1CCSC1=CC=c1sc(=Cc2sc3ccccc3[n+]2CC)n(CC)c1=O
tgt: normal monkey kidney epithelial cell line CV-1
IC50: 5 µg/mL
--
record smiles: CCN1C(=CC=c2sc(=Cc3sc4c5ccccc5ccc4[n+]3CCO)n(CC)c2=O)Sc2ccc3ccccc3c21
tgt: normal monkey kidney epithelial cell line CV-1
IC50: 20 µg/mL
--
record smiles: CCOc1ccc2c(c1)C=CC(=CC=c1sc(=Cc3sc4c5ccccc5ccc4[n+]3CC)n(CC)c1=O)N2CC
tgt: normal monkey kidney epithelial cell line CV-1
IC50: > 20 µg/mL
--
record smiles: CCN1C(=CC=c2sc(=CC3=[N+](CC)CCS3)n(CC)c2=O)C=Cc2ccccc21
tgt: normal monkey kidney epithelial cell line CV-1
IC50: > 20 µg/mL
--
record smiles: CCN1CCSC1=CC=c1sc(=CC2=[N+](CC)CCS2)n(CC)c1=O
tgt: normal monkey kidney epithelial cell line CV-1
IC50: 20 µg/mL

Record CCN1C(=CC=c2sc(=Cc3sc4c5ccccc5ccc4[n+]3CC)n(CC)c2=O)Sc2c1ccc1ccccc21 , field IC50: 4 µg/mL

IC50 reading for CCN1CCSC1=CC=c1sc(=Cc2sc3ccc(C)cc3[n+]2CC)n(CC)c1=O : 5 µg/mL

IC50 in this record for CCN1C(=CC=c2sc(=Cc3sc4c5ccccc5ccc4[n+]3CC)n(CC)c2=O)C=Cc2cc(Cl)ccc21 : > 20 µg/mL

====

- System: normal monkey kidney epithelial cell line CV-1
- assay: Colony formation assay, normal monkey kidney epithelial cells CV-1
- condition parameters: Primates, Epithelial cell, read-out: CV-1 (IC50), Table III; 24 h treatment, colony count after 7 to 10 days
# IC50 annotations
Note: unit µg/mL is implicit; provide only the numeric part.

For orientation, consider the following solved cases.
molecule: CCN1C(=CC=c2sc(=Cc3sc4c5ccccc5ccc4[n+]3C)n(C)c2=O)Sc2ccc3ccccc3c21 [Compound 46]
IC50, µg/mL: 20

molecule: CCN1C(=CC=c2sc(=Cc3sc4c5ccccc5ccc4[n+]3CC)n(CC)c2=O)C(C)(C)c2cc(Cl)ccc21 [Compound 220]
IC50, µg/mL: 5

molecule: CCN1C(=CC=c2sc(=Cc3sc4c5ccccc5ccc4[n+]3CC)n(C)c2=O)Sc2ccc3ccccc3c21 [Compound 45]
IC50, µg/mL: 20

molecule: CCN1CCSC1=CC=c1sc(=Cc2oc3c4ccccc4ccc3[n+]2CC)n(CC)c1=O [Compound 390]
IC50, µg/mL: 20

molecule: CCN1C=CC(=CC=c2sc(=Cc3sc4ccc5ccccc5c4[n+]3CC)n(CC)c2=O)c2ccccc21 [Compound 307]
IC50, µg/mL: 3

molecule: CCN1CCSC1=CC=c1sc(=Cc2sc3cccc(OC)c3[n+]2CC)n(CC)c1=O [Compound 154]
IC50, µg/mL: 5

Turning now to a further record.
GET /value?item= CCN1C(=CC=c2sc(=Cc3sc4ccc5ccccc5c4[n+]3CC)n(CC)c2=O)Sc2c1ccc1ccccc21 [Compound 20] &field=IC50 returns 6

====

Entries and their IC50
- System: normal monkey kidney epithelial cell line CV-1
- assay: Colony formation assay, normal monkey kidney epithelial cells CV-1;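 note: colonies visualized by crystal violet staining, incubation at 37 °C, IC50 relative to untreated wells given culture medium alone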
- condition parameters: Primates, Epithelial cell, read-out: CV-1 (IC50), Table IV

Example compounds with recorded IC50:
compound: CCN1C(=CC=c2sc(=Cc3sc4c5ccccc5ccc4[n+]3CC)n(C)c2=O)Sc2ccc3ccccc3c21 [Compound 45]
tgt: normal monkey kidney epithelial cell line CV-1
IC50: 20 µg/mL

compound: CCN1CCSC1=CC=c1sc(=Cc2sc3ccc(OC)cc3[n+]2CC)n(CC)c1=O [Compound 125]
tgt: normal monkey kidney epithelial cell line CV-1
IC50: 8 µg/mL

compound: CCN1C(=CC=c2sc(=Cc3sc4c5ccccc5ccc4[n+]3C)n(C)c2=O)Sc2ccc3ccccc3c21 [Compound 46]
tgt: normal monkey kidney epithelial cell line CV-1
IC50: 20 µg/mL

In plain terms, CCN1CCSC1=CC=c1sc(=Cc2sc3ccc(Cl)cc3[n+]2CC)n(CC)c1=O [Compound 123] has a documented IC50 of 20 µg/mL

compound CCN1CCSC1=CC=c1sc(=Cc2sc3ccc(C)cc3[n+]2CC)n(CC)c1=O [Compound 124] , IC50 observed: 5 µg/mL

For CCn1c(=Cc2sc3ccccc3[n+]2CC)sc(=CC=C2N(C)c3ccccc3C2(C)C)c1=O [Compound 206] the compound record lists IC50 as 6 µg/mL

Entry under test: CCN1C(C)=CSC1=CC=c1sc(=Cc2sc3c4ccccc4ccc3[n+]2CC)n(CC)c1=O [Compound 97] . Its IC50 was 2 µg/mL

response.value for CCN1C(=CC=c2sc(=Cc3sc4ccccc4[n+]3CC)n(CC)c2=O)Sc2ccc3ccccc3c21 [Compound 37] (field: IC50) = 5 µg/mL

Entry CCN1C(=CC=c2sc(=Cc3sc4c5ccccc5ccc4[n+]3CC)n(CC)c2=O)Sc2ccc3ccccc3c21 [Compound 54] — recorded IC50 = 20 µg/mL

Sample CCn1c(=Cc2sc3ccc(Cl)cc3[n+]2CC)sc(=CC=C2N(C)c3ccccc3C2(C)C)c1=O [Compound 214] ; IC50 observed: 8 µg/mL

The recorded IC50 for CCN1C(=CC=c2sc(=Cc3sc4c5ccccc5ccc4[n+]3C)n(CC)c2=O)Sc2ccc3ccccc3c21 [Compound 49] is 20 µg/mL

In plain terms, CCN1C(=CC=c2sc(=Cc3sc4c5ccccc5ccc4[n+]3CC)n(CC)c2=O)N(CC(F)(F)C(F)F)c2cc(C(F)(F)F)ccc21 [Compound 230] has a documented IC50 of 15 µg/mL

Entry under test: CC[n+]1c(C=c2sc(=CC=C3Sc4ccc5ccccc5c4N3C)c(=O)n2C)sc2c3ccccc3ccc21 [Compound 47] . Its IC50 was 20 µg/mL

According to the records, this compound CCn1c(=Cc2sc3c4ccccc4ccc3[n+]2CC)sc(=CC=C2Sc3ccc4ccccc4c3N2C)c1=O [Compound 56] displays IC50 of 20 µg/mL
